The values you see were collected from ChEMBL document CHEMBL1124820.

target: Phosphatidylinositol 4-kinase, PI4K (Homo sapiens) (UniProt Q9BTU6+Q8TCG2+Q9UBF8+P42356); assay: Rate of phosphorylation was determined with that of mammalian PI using human erythrocyte PI 4-kinase at 200 uM substrate; format: functional
Sequence (P42356 whole entry, looked up): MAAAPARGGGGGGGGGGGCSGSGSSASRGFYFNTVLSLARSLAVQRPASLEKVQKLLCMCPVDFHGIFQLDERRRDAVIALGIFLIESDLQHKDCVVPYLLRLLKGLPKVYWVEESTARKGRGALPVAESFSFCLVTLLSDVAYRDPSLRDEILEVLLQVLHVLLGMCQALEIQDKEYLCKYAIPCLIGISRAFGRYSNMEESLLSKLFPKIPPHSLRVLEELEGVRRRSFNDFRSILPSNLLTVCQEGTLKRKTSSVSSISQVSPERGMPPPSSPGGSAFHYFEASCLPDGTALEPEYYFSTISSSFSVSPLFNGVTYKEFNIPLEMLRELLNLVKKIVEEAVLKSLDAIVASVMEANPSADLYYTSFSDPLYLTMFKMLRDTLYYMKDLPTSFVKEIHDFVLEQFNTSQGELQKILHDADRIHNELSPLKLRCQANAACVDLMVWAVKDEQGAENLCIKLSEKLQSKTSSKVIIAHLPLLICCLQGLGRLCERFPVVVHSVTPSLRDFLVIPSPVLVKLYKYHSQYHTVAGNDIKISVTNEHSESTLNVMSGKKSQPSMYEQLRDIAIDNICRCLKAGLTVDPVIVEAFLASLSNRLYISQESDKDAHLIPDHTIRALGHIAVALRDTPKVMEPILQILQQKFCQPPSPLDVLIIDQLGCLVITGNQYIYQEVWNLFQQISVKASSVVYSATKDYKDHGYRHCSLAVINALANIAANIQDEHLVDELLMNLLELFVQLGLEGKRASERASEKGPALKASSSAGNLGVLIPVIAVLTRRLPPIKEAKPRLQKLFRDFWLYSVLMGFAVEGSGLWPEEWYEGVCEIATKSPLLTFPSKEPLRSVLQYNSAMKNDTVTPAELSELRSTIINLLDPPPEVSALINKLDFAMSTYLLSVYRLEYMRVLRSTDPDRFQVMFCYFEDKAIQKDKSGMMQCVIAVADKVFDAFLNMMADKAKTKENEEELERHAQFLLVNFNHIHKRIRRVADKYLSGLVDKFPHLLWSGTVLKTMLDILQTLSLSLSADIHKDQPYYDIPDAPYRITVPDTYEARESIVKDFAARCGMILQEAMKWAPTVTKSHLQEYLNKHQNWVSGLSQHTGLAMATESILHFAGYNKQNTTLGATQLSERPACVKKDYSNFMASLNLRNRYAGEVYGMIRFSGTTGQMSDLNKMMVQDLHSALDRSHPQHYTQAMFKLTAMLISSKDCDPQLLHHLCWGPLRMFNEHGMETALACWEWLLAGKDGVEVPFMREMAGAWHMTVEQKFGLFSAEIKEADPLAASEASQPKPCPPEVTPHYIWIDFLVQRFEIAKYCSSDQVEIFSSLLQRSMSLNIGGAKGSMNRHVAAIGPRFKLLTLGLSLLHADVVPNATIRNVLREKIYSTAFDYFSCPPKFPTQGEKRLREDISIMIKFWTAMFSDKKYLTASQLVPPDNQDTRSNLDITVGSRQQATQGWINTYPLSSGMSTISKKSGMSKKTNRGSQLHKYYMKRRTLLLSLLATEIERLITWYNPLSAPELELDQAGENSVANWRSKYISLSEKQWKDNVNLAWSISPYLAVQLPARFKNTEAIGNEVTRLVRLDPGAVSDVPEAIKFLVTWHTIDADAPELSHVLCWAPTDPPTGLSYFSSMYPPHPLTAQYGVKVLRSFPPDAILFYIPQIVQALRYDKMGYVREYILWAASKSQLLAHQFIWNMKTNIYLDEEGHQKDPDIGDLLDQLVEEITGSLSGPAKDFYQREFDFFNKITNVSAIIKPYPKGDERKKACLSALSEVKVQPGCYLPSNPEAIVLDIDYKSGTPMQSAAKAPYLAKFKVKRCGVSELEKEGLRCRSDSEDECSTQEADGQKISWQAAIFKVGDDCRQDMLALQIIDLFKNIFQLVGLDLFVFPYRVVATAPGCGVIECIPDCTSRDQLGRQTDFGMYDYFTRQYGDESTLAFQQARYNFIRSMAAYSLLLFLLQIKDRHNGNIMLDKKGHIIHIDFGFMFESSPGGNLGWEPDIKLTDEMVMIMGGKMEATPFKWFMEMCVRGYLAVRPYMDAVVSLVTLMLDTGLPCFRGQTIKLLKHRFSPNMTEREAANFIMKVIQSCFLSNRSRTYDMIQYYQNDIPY
Sequence (Q8TCG2 whole entry, looked up): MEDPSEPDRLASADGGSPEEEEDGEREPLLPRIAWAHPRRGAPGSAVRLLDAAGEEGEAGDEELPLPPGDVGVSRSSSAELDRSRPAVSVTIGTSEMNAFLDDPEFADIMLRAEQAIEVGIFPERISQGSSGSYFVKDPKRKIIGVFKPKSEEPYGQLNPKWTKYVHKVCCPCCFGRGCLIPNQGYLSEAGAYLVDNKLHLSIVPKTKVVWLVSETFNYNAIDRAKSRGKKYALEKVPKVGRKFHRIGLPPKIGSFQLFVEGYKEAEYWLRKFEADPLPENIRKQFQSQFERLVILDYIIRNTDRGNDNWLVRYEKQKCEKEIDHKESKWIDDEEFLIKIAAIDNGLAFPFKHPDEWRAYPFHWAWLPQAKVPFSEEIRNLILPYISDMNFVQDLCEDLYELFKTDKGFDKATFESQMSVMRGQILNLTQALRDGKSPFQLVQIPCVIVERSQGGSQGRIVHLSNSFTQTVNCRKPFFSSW
Sequence (Q9BTU6 whole entry, looked up): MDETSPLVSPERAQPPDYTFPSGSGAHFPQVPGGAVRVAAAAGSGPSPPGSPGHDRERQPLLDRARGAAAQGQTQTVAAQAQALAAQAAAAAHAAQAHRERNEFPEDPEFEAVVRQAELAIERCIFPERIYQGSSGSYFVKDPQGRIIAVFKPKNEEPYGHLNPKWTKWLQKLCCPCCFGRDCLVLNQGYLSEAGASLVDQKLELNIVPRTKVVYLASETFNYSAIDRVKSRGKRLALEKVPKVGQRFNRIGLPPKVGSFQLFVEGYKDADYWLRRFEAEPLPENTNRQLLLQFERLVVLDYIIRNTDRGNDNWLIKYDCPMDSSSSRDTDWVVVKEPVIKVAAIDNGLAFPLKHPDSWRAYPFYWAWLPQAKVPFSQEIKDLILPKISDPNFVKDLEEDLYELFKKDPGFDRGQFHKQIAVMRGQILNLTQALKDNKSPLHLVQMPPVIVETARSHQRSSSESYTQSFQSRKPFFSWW
Sequence (Q9UBF8 whole entry, looked up): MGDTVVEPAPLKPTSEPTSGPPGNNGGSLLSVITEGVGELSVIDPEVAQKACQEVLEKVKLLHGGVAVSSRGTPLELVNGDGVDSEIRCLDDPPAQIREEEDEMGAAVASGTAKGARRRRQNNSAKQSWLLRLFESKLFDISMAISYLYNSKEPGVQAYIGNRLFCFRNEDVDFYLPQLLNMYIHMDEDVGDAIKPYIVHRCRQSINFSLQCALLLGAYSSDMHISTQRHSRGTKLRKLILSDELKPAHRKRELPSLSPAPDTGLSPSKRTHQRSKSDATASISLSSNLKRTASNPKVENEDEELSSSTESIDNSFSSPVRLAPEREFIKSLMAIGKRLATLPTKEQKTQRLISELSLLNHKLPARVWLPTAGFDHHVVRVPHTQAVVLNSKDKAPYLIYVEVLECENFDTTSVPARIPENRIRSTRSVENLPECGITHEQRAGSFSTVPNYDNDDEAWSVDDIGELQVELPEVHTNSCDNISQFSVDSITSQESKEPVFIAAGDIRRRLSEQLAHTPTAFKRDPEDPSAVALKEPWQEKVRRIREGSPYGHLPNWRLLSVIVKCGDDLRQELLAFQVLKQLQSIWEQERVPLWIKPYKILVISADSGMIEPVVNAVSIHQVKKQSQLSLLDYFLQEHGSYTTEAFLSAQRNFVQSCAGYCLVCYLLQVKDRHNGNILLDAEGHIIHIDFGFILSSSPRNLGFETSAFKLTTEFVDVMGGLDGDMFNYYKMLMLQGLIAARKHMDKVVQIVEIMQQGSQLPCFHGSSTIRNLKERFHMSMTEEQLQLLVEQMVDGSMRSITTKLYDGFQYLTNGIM
List of Rate of formation values.
Write down the numeric answer in pmol/min and omit the unit.

For the compound shown here, CCCCC/C=C/C/C=C/C/C=C/C/C=C/CCCC(=O)OC(COC(=O)CCCCCCCCCCCCCCCCC)COP(=O)(O)OC1C(O)C(O)C(O)C(O)C1O (stereo not given) , give the reported Rate of formation.
23.5

Do the same for CCCCCCCCCCCCCCCC(=O)OCC(COP(=O)(O)OC1C(O)C(O)C(O)C(O)C1O)OC(=O)CCCCCCCCCCCCCCC (stereo in doubt; 10a) please
24.9

Do the same for CCCCCCCCCCCCCCCC(=O)OCC(COP(=O)(O)OC1C(O)C(O)C(O)C(O)C1O)OC(=O)CCCCCCCCCCCCCCC (stereo in doubt; 10d) please
0.76

Do the same for CCCCCCCCCCCCCCCC(=O)OCC(COP(=O)(O)OC1C(O)C(O)C(O)C(O)C1O)OC(=O)CCCCCCCCCCCCCCC (stereo in doubt; 10c) please
1.01

Do the same for CCCCCCCCCCCCCCCC(=O)OCC(COP(=O)(O)OC1C(O)C(O)C(O)C(O)C1O)OC(=O)CCCCCCCCCCCCCCC (stereo in doubt; 10b) please
23.5

###

biological target: Phosphatidylinositol 4-kinase, PI4K (Homo sapiens) (UniProt Q9BTU6+Q8TCG2+Q9UBF8+P42356); assay: Percent relative rate of phosphorylation was determined using human erythrocyte PI 4-kinase; type: functional
List of Relative rate values.
Write down the numeric answer in % and omit the unit.

{"MOLECULE": "CCCCCCCCCCCCCCCC(=O)OCC(COP(=O)(O)OC1C(O)C(O)C(O)C(O)C1O)OC(=O)CCCCCCCCCCCCCCC (stereo in doubt; 10b)", "EXPERIMENTAL TARGET": "Phosphatidylinositol 4-kinase, PI4K (Homo sapiens) (UniProt Q9BTU6+Q8TCG2+Q9UBF8+P42356)", "Relative rate, %": 100}
{"MOLECULE": "CCCCCCCCCCCCCCCC(=O)OCC(COP(=O)(O)OC1C(O)C(O)C(O)C(O)C1O)OC(=O)CCCCCCCCCCCCCCC (stereo in doubt; 10d)", "EXPERIMENTAL TARGET": "Phosphatidylinositol 4-kinase, PI4K (Homo sapiens) (UniProt Q9BTU6+Q8TCG2+Q9UBF8+P42356)", "Relative rate, %": 3.2}
{"MOLECULE": "CCCCC/C=C/C/C=C/C/C=C/C/C=C/CCCC(=O)OC(COC(=O)CCCCCCCCCCCCCCCCC)COP(=O)(O)OC1C(O)C(O)C(O)C(O)C1O (stereo not given)", "EXPERIMENTAL TARGET": "Phosphatidylinositol 4-kinase, PI4K (Homo sapiens) (UniProt Q9BTU6+Q8TCG2+Q9UBF8+P42356)", "Relative rate, %": 100}
{"MOLECULE": "CCCCCCCCCCCCCCCC(=O)OCC(COP(=O)(O)OC1C(O)C(O)C(O)C(O)C1O)OC(=O)CCCCCCCCCCCCCCC (stereo in doubt; 10c)", "EXPERIMENTAL TARGET": "Phosphatidylinositol 4-kinase, PI4K (Homo sapiens) (UniProt Q9BTU6+Q8TCG2+Q9UBF8+P42356)", "Relative rate, %": 4.3}

For the molecule shown here, CCCCCCCCCCCCCCCC(=O)OCC(COP(=O)(O)OC1C(O)C(O)C(O)C(O)C1O)OC(=O)CCCCCCCCCCCCCCC (stereo in doubt; 10a) , give the reported Relative rate.
106
